Measured on: PAD2 (Homo sapiens)
Sequence (Q9Y2J8 whole entry): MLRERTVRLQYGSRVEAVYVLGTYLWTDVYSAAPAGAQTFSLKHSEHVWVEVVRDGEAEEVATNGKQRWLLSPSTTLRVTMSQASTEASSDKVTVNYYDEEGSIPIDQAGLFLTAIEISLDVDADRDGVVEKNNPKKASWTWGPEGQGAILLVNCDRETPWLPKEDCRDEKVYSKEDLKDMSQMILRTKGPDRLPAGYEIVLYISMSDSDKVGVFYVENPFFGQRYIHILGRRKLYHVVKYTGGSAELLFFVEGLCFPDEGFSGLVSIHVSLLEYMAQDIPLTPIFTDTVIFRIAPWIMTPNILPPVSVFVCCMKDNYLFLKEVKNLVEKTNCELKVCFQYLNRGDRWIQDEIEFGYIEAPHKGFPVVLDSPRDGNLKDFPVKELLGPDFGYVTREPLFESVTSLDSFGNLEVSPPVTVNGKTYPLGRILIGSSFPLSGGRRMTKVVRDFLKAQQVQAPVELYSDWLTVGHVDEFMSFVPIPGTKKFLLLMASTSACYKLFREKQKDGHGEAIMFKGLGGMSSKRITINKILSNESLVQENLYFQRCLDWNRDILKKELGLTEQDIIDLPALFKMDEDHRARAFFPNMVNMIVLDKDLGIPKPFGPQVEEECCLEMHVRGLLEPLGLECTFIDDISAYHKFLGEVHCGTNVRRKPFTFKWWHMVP
Test protocol: ABAP antibody based PAD enzyme activity assay, PAD2
Assay type: biochemical
Test conditions: Table 19, first 8 pentapeptide inhibitors
Square brackets hold non-standard residues; d marks the D form. Peptide text beside a SMILES is read from it. Orn(fluoroacetimidoyl) = N=C(CF)NCCC[C@H](N)C(=O)O
Measured attribute: IC50 (µM)
The response must be a number in µM with no trailing unit.

Any idea what IC50 was measured for N=C(CF)NCCC[C@H](NC(=O)[C@H](CC(=O)O)NC(=O)CN)C(=O)N[C@@H](CO)C(=O)NCC(=O)O [SEQ ID NO: 13, G-D-O(FA)-S-G] (H-GD[Orn(fluoroacetimidoyl)]SG-OH) ?
17

====

Measured on: PAD4 (Homo sapiens)
Test protocol: Citrullination of synthetic peptides by recombinant human PAD4 (MALDI-TOF and ESI-Q-TOF mass spectrometry)
Type: biochemical
Set-up: His6; made in house
Test conditions: share of peptide with two citrullines
Reported PAD4 conversion: 2 Cit values for the following sequences.
Note: unit % is implicit; provide only the numeric part.

Previously resolved entries follow.
{"Primary sequence": "IGSRGDRSGFGKF [SEQ ID NO: 6]", "Unit info": "%", "Observed value": 29}
{"Primary sequence": "DSRFYWRGGGKSD [SEQ ID NO: 10]", "Unit info": "%", "Observed value": 25}
{"Primary sequence": "IEIITDRQSGKKR [SEQ ID NO: 7]", "Unit info": "%", "Observed value": 10}
{"Primary sequence": "IEIMTDRGSGKKR [SEQ ID NO: 5]", "Unit info": "%", "Observed value": 3}

Now consider a different sequence.
Item under review: DSYRSWRDGYYSD [SEQ ID NO: 4] . Reported PAD4 conversion: 2 Cit?
0

====

Conversion values, listed per item
Measured on: PAD4 (Homo sapiens)
Test protocol: Conversion (R to Cit) of substrate peptides by PAD4, mass spectrometry
Format: biochemical
Test conditions: Table 7, PAD4, test system with 3 times less enzyme
Ends that are not written are not given here.
Please reply with the value in numeric form only.

Answered examples (3):
{"Substance": "D-S-K-K-Y-D-R-D-F-L-W-S-D (DSKKYDRDFLWSD; not fully specified (C-terminus); printed as D-S-K-K-Y-D-R-D-F-L-W-S-D) [Peptide 0708-29]", "Conversion": 61}
{"Substance": "D-S-W-W-H-K-R-D-K-L-Y-S-D (DSWWHKRDKLYSD) [Peptide 0708-23]", "Conversion": 18}
{"Substance": "D-S-H-K-F-D-R-D-F-L-Y-S-D (DSHKFDRDFLYSD; not fully specified (C-terminus); printed as D-S-H-K-F-D-R-D-F-L-Y-S-D) [Peptide 0708-28]", "Conversion": 53}

Consider the substance D-S-N-K-H-H-R-D-H-L-Y-S-D (DSNKHHRDHLYSD) [Peptide 0708-17] and give its measured Conversion.
38

Further, for D-S-K-K-F-K-R-D-F-L-F-S-D (DSKKFKRDFLFSD; not fully specified (C-terminus); printed as D-S-K-K-F-K-R-D-F-L-F-S-D) [Peptide 0708-26] ?
23

====

Measured on: PAD4 (Homo sapiens)
Test protocol: Conversion (R to Cit) of substrate peptides by PAD4, mass spectrometry
Type: biochemical
Test conditions: Table 7, PAD4, test system with 3 times less enzyme
Ends that are not written are not given here.
# strict inequality: Conversion < 50 yields t, everything else yields f

{"Substance": "D-S-K-K-H-F-R-G-K-L-Y-S-D (DSKKHFRGKLYSD; not fully specified (C-terminus); printed as D-S-K-K-H-F-R-G-K-L-Y-S-D) [Peptide 0708-32]", "Discrete label": "t"}
{"Substance": "D-S-K-W-H-H-R-G-H-L-Y-S-D (DSKWHHRGHLYSD) [Peptide 0708-31]", "Discrete label": "f"}
{"Substance": "D-S-N-W-H-H-R-D-H-L-Y-S-D (DSNWHHRDHLYSD) [Peptide 0708-19]", "Discrete label": "t"}

Attention now shifts to the item below.
Report whether reported Conversion is lower than 50 (strictly) for D-S-K-W-H-H-R-D-H-L-Y-S-D (DSKWHHRDHLYSD; not fully specified (C-terminus); printed as D-S-K-W-H-H-R-D-H-L-Y-S-D) [Peptide 0708-18]
f

====

Measured on: PAD4 (Homo sapiens)
Test protocol: Conversion (R to Cit) of substrate peptides by PAD4, mass spectrometry
Format: biochemical
Test conditions: Table 5, peptides with two additional N-terminal F-residues, PAD4
Measured attribute: Conversion (%)
Return type: number; implicit unit %.

Solved cases below.
{"Substance": "F-F-D-S-H-K-K-S-R-E-Y-V-F-S-D (FFDSHKKSREYVFSD) [Peptide 0612-44]", "Conversion (%)": 100}
{"Substance": "F-F-D-S-H-K-L-H-R-E-W-M-W-S-D (FFDSHKLHREWMWSD) [Peptide 0612-46]", "Conversion (%)": 100}
{"Substance": "F-F-D-S-H-K-W-H-R-D-F-F-Y-S-D (FFDSHKWHRDFFYSD) [Peptide 0612-37]", "Conversion (%)": 100}
{"Substance": "F-F-D-S-K-K-F-S-R-D-H-I-E-S-D (FFDSKKFSRDHIESD) [Peptide 0612-35]", "Conversion (%)": 97}
{"Substance": "F-F-D-S-K-K-H-D-R-D-F-L-Y-S-D (FFDSKKHDRDFLYSD) [Peptide 0612-33]", "Conversion (%)": 100}

Please state recorded Conversion (%) (tested on PAD4 (Homo sapiens)) of F-F-D-S-H-K-L-D-R-E-Y-M-F-S-D (FFDSHKLDREYMFSD) [Peptide 0612-36]
100

Lookup F-F-D-S-K-K-K-H-R-E-W-V-W-S-D (FFDSKKKHREWVWSD) [Peptide 0612-34]
100

What about F-F-D-S-K-H-H-S-R-D-H-L-E-S-D (FFDSKHHSRDHLESD) [Peptide 0612-23] ?
100

====

Measured on: PAD4 (Homo sapiens, UniProt Q9UM07)
Sequence (Q9UM07 whole entry): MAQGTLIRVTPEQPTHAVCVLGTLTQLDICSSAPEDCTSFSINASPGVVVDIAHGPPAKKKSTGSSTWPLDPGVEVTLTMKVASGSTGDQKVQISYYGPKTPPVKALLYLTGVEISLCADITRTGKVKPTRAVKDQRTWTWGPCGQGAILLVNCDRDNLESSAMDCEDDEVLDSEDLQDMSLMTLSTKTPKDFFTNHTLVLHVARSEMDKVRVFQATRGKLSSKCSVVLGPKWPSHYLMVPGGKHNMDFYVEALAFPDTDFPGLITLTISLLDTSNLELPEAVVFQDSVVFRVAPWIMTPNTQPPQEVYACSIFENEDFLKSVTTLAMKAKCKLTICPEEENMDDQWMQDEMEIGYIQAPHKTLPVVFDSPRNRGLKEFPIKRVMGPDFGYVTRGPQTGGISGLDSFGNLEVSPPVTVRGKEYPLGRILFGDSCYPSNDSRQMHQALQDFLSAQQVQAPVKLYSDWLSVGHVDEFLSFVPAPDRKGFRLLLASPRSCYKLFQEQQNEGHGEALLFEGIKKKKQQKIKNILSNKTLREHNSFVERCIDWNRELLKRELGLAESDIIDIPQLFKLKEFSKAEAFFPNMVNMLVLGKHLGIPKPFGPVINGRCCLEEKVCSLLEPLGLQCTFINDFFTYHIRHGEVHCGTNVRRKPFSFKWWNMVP
Test protocol: Conversion (R to Cit) of substrate peptides by PAD4, mass spectrometry
Assay type: biochemical
Test conditions: Table 10
Ends that are not written are not given here.
Measured attribute: Conversion by PAD4 (%)
Unit % implied. Number only.

{"Substance": "F-F-D-S-H-K-H-S-R-E-W-L-W-S-D (FFDSHKHSREWLWSD) [Peptide 0612-38]", "Unit info": "%", "Conversion by PAD4 (%)": 72}

Please turn your attention to the following entry.
Test system PAD4 (Homo sapiens, UniProt Q9UM07); read-out Conversion by PAD4 (%); what value for D-S-K-K-H-F-R-D-K-L-Y-S-D (DSKKHFRDKLYSD; not fully specified (C-terminus); printed as D-S-K-K-H-F-R-D-K-L-Y-S-D) [Peptide 0708-22] ?
37

====

Measured on: PAD4 (Homo sapiens, UniProt Q9UM07)
Test protocol: Conversion (R to Cit) of substrate peptides by PAD4, mass spectrometry
Type: biochemical
Test conditions: Table 10
Ends that are not written are not given here.
Measured attribute: Conversion by PAD4 (%)
Answer format: value, then unit.

Answered cases to consult:
{"Substance": "F-F-D-S-H-K-W-H-R-D-F-F-Y-S-D (FFDSHKWHRDFFYSD) [Peptide 0612-37]", "Observed value": "88%"}
{"Substance": "F-F-D-S-K-K-F-S-R-D-H-I-E-S-D (FFDSKKFSRDHIESD) [Peptide 0612-35]", "Observed value": "63%"}
{"Substance": "D-S-K-W-H-H-R-G-H-L-Y-S-D (DSKWHHRGHLYSD) [Peptide 0708-31]", "Observed value": "71%"}
{"Substance": "D-S-H-K-W-H-R-D-F-F-Y-S-D (DSHKWHRDFFYSD; not fully specified (C-terminus); printed as D-S-H-K-W-H-R-D-F-F-Y-S-D) [Peptide 0608-35]", "Observed value": "73%"}
{"Substance": "D-S-K-K-Y-D-R-D-F-L-W-S-D (DSKKYDRDFLWSD; not fully specified (C-terminus); printed as D-S-K-K-Y-D-R-D-F-L-W-S-D) [Peptide 0708-29]", "Observed value": "76%"}

Next:
Look up Conversion by PAD4 (%): D-S-K-K-L-H-R-D-H-M-E-S-D (DSKKLHRDHMESD; not fully specified (C-terminus); printed as D-S-K-K-L-H-R-D-H-M-E-S-D) [Peptide 0608-29]
65%

====

Entries annotated with measured Conversion by PAD4 (%)
Measured on: PAD4 (Homo sapiens)
Test protocol: Conversion (R to Cit) of substrate peptides by PAD4, mass spectrometry
Type: biochemical
Test conditions: Table 10
Ends that are not written are not given here.
Answer format: numeric, % implied, no suffix.

Answered cases to consult:
{"Substance": "D-S-K-F-A-F-R-G-G-I-A-S-D (DSKFAFRGGIASD; not fully specified (C-terminus); printed as D-S-K-F-A-F-R-G-G-I-A-S-D) [Peptide 0735-41]", "Conversion by PAD4 (%)": 25}
{"Substance": "F-F-D-S-K-K-K-H-R-E-W-V-W-S-D (FFDSKKKHREWVWSD) [Peptide 0612-34]", "Conversion by PAD4 (%)": 76}

Could you share which Conversion by PAD4 (%) value was measured for D-S-K-W-H-H-R-D-H-L-Y-S-D (DSKWHHRDHLYSD; not fully specified (C-terminus); printed as D-S-K-W-H-H-R-D-H-L-Y-S-D) [Peptide 0708-18] ?
71

// next record D-S-K-K-H-F-R-G-K-L-Y-S-D (DSKKHFRGKLYSD; not fully specified (C-terminus); printed as D-S-K-K-H-F-R-G-K-L-Y-S-D) [Peptide 0708-32]
22

Queued: D-S-H-K-H-S-R-E-W-L-W-S-D (DSHKHSREWLWSD; not fully specified (C-terminus); printed as D-S-H-K-H-S-R-E-W-L-W-S-D) [Peptide 0608-36]
51
